Source of measurements: PubChem BioAssay (NCI)

# System: UACC-257 melanoma
# test: NCI tumour cell line growth inhibition, 48 h
value type: TGI

COc1cccc(COc2cc(-n3cnc4ccccc43)sc2C(N)=O)c1 = > 25 µM
O=[N+]([O-])c1ccc(-c2cc3c(Nc4ccc(Cl)c(C(F)(F)F)c4)ncnc3s2)cc1 = > 26.8 µM
CCOC(=O)C1=CC(C)(C(=O)OCC)Nc2c(nc(N)[nH]c2=O)N1 (stereo not drawn) = > 10 µM

----------
Property: TGI; scope: individual compounds
# System: SK-MEL-5 melanoma
# test: NCI tumour cell line growth inhibition, 48 h
value type: TGI (µM)

CCCCCCCCCCCCCCCCCCOCC(COCCOCC[N+]1(CCCCCC(=O)[O-])CCCC1)Oc1ncccn1 (stereo not given) = 15.2
CN(C)c1cccc2c1C(=O)C=CC21c2ccc(N(C)C)c3c(N(C)C)ccc(c23)C(c2ccccc2)C1c1ccccc1 (stereo not given) = 27.5
CC(=O)[CH-]C(=O)c1ccccc1.CC(=O)[CH-]C(=O)c1ccccc1.CC1(C)OCC(C2OC3OC(C)(C)OC3C2[O-])O1.CC[O-].[Ti+4] (stereo not given) = 23.9
CC1c2ccccc2N=C2SC(=S)N3CCN=C3N21 (stereo not given) = 35.8
CCNCCNc1cc(-c2ccc(C#N)cc2)c(C#N)c2nc3ccccc3n12 = 5.67
CC(C)(C)NCC(COc1ccc([N+](=O)[O-])cc1)OP(c1ccccc1)c1ccccc1 (stereo not given) = 37.3
CCCCCCCCCCCC1CC(=O)NCCCN(C)CCCCN(C)CCCN1C (stereo not given) = 3.43

----------
# Tested on: SK-MEL-28 melanoma
# test: NCI tumour cell line growth inhibition, 48 h
Property: TGI; scope: individual molecules
value type: TGI (µM)

O=C(c1cccs1)C1NO[N+]([O-])=C1c1cccs1 (stereo unspecified) = 6.8
C(=C\c1ccccc1)/COc1ccccc1C(N1CCOCC1)n1nc2ccccc2n1 (stereo unspecified) = 32.7
CC(C)[O-].CC(C)[O-].CN(CCN(C)Cc1cc(F)cc(F)c1[O-])Cc1cc(F)cc(F)c1[O-].[Ti+4] = 2.17
Nc1ccccc1C(=O)C(Br)C(Br)c1ccc2c(c1)OCO2 (stereo unspecified) = 70.4
CCOC(=O)N1CCN(CCCCCOc2ccccc2C2CCCCC2)CC1 = 16.3
CCN(CC)CCO/N=C1\CC[C@H]2[C@@H]3CCc4cc(OC)ccc4[C@H]3CC[C@]12C = 1.28
CSc1ccc(N(C)c2nc(C)nc3c2CCC3)cc1 = 36.6
COc1cc(/C=C2\CCC(C)/C(=C\c3cc(OC)c(OC)c(OC)c3)C2=O)cc(OC)c1OC (stereo unspecified) = 25.2
CCCCCCCCCCCC1CC(=O)NCCCN(C)CCCCN(C)CCCN1C (stereo unspecified) = 3.09

----------
Property: TGI; scope: individual compounds
# Tested on: HL-60(TB) leukemia
# test: NCI tumour cell line growth inhibition, 48 h
value type: TGI

COc1ccc(C2=C(N3CCc4ccccc43)C(=O)NC2=O)cc1 = > 25 µM
COc1cc(C(O)c2ccc3c(c2)OCO3)cc(OC)c1OC (centres undefined) = > 100 µM
CCOC(=O)c1sc2ncnc(N)c2c1C = > 100 µM
O=C(NN1C(=O)CSC1c1cccc(F)c1)c1ccncc1 (centres undefined) = > 100 µM

----------
Property: GI50; scope: individual molecules
# Test system: CCRF-CEM leukemia
# test: NCI tumour cell line growth inhibition, 48 h
value type: GI50

Cc1cc2c(cc1Cl)S/C(=C/C(=O)O)C(Nc1cccc3nsnc13)=NS2(=O)=O = 22.5 µM
O=C(/C=C/c1cccc(O)c1)c1cccc(-n2cc(-c3ccc4ccccc4c3)[nH]c2=O)c1 = 2.03 µM
CC1c2ccccc2N=C2SC(=S)N3CCN=C3N21 (stereo not drawn) = > 100 µM

----------
# Tested on: NCI-H522 lung
# test: NCI tumour cell line growth inhibition, 48 h
Property: TGI; scope: individual compounds
value type: TGI

CC(C)(C)OC(=O)NC1CCCC1=O (stereo not given) = > 100 µM
CCOC(=O)c1c(SCCN2CCOCC2)n(-c2ccccc2)c(=S)n(-c2ccccc2)c1=O = > 100 µM
O=C1C2=C(CCC2)Nc2cccc3ncn1c23 = > 100 µM
Cc1cc2c(cc1Cl)S/C(=C/C(=O)O)C(Nc1cccc3nsnc13)=NS2(=O)=O = > 77.4 µM
CC#CC(O)(C(=O)OC1CC(C)N(C)C(C)(C)C1)C1CCCC1 (stereo not given) = > 100 µM
COc1ccc(C2Oc3c(c(O)cc4c3[C@H](c3ccc(O)cc3O)[C@H](O)C(c3ccc(O)c(O)c3)O4)C[C@@H]2O)cc1O (stereo not given in full) = > 100 µM
CCOC(=O)C1=CC(C)(C(=O)OCC)Nc2c(nc(N)[nH]c2=O)N1 (stereo not given) = > 10 µM
O=C1c2ccccc2-c2c1c1ccccc1c(=O)n2CCNCCn1c2c(c3ccccc3c1=O)C(=O)c1ccccc1-2 = > 25 µM
C/C1=C\CC[C@@](C)(O)[C@@H]2C[C@H](CC/C(C)=C/CC1)C1(CC1)C(=O)O2 = > 100 µM
O=C(O)CN(CC(=O)O)C(C(=O)O)c1ccccc1 (stereo not given) = > 100 µM
N.N.N.N.N.O=S(=O)([O-])S(=O)(=O)[O-].[Co+3] = > 100 µM
C=CCN1C(=O)/C(=C/c2ccc(C)cc2)N=C1SC1OC(COC(C)=O)C(OC(C)=O)C(OC(C)=O)C1OC(C)=O (stereo not given) = > 100 µM
O=C(NN1C(=O)CSC1c1cccc(F)c1)c1ccncc1 (stereo not given) = > 100 µM
Fc1ccc2nc(-c3cc(-c4ccc5c(c4)OCO5)n[nH]3)[nH]c2c1 = 13 µM
CN1N=C(c2ccncc2)OC1c1ccccc1F (stereo not given) = > 100 µM
Clc1ccc(/C(=C\c2ccccc2)Cn2ccnc2)cc1 = 28 µM
O=C1C(C(O)(C(F)(F)F)C(F)(F)F)CCC1C(O)(C(F)(F)F)C(F)(F)F (stereo not given) = 18.9 µM
CC(=O)Oc1c(C)c(C)c2c(c1C)CCC(C)(CC(=O)OCCCCCCCCCCC[P+](c1ccccc1)(c1ccccc1)c1ccccc1)O2 (stereo not given) = 0.666 µM
CC(C)C1=C(O)C2=C(C(=O)C1=O)C1(C)CCCC(C)(C)C1C(O)C2OC=O (stereo not given) = 27.5 µM
O=C(CC(C(=O)c1ccco1)c1ccco1)c1ccco1 (stereo not given) = > 100 µM
CCOC(=O)C1CCC(=O)N1C(=O)c1ccccc1Cl (stereo not given) = > 100 µM
O=C1CNS(=O)(=O)N1 = > 100 µM
CCN(CC)c1ccc(/C=C/C2=[N+](C)c3ccccc3C2(C)C)c(C)c1 = 0.269 µM
C=C1C2Oc3ccccc3C1N(c1ccccc1)O2 (stereo not given) = 80.8 µM
CN(C)C(=S)Nc1nnc(Nc2ccccc2)s1 = > 100 µM

----------
# Tested on: RPMI-8226 leukemia
# test: NCI tumour cell line growth inhibition, 48 h
value type: TGI

CCOC(=O)c1sc2ncnc(N)c2c1C = > 100 µM
Cc1cccc(N=Nc2ccc(N=Nc3c(O)ccc4ccccc34)cc2C)c1 = > 100 µM
COc1ccc(-c2c(C3=NCCCN3)nnn2-c2ccc([N+](=O)[O-])cc2)cc1 = > 100 µM
O=C1c2cccc(O)c2C(=O)c2c(O)cc(CO)cc21 = > 100 µM
O=S1SC(=S)C2C=CC=CC21 (stereo unspecified) = > 100 µM
COc1ccc(C(=O)c2nc3ccccc3n2CC(=O)c2ccc(Cl)cc2)cc1 = > 23.9 µM

----------
# Test system: A498 renal
# test: NCI tumour cell line growth inhibition, 48 h; in the data active = GI50 below about 0.43 µM; inactive = the rest
Outcome codes: active, inactive

OCc1ccc(N2CCOCC2)cc1Cl = active
Nc1cc(-c2ccc(Cl)cc2)nn1-c1nnc(/C=C/c2ccco2)c(=O)[nH]1 = inactive
COC(=O)c1ccc2c(c1)C(=O)c1c-2n(CCCN=[N+]=[N-])c(=O)c2cc([N+](=O)[O-])ccc12 = inactive
O=C1c2ccccc2-c2c1c1ccccc1c(=O)n2CCNCCn1c2c(c3ccccc3c1=O)C(=O)c1ccccc1-2 = inactive
c1ccc(-c2nc(N3CCCNCC3)c3nc(-c4ccccc4)oc3n2)cc1 = inactive
CCCCCCCCCCCCCC[n+]1cccc(C(N)=O)c1 = inactive

----------
# Tested on: MDA-MB-435
# test: NCI tumour cell line growth inhibition, 48 h
Property: TGI; scope: individual compounds
value type: TGI (µM)

C[C@H]1[C@H](C)CC[C@]2(C(=O)OC3OC(CO)C(O)C(O)C3O)CC[C@]3(C)C(=CC[C@@H]4[C@@]5(C)C[C@H]6OC(=O)c7cc(O)c(O)c(O)c7-c7c(cc(O)c(O)c7O)C(=O)O[C@@H]6C(CO)(CO)[C@@H]5CC[C@]43C)[C@H]12 (some centres undefined) = 36.2
CCOC(=O)N1CCN(CCCCCOc2ccccc2C2CCCCC2)CC1 = 15.1
CC(C)Oc1ccc(C(=O)Cn2ccnc2)cc1-n1c(CN2CCN(C(=O)COc3ccc(Cl)cc3)CC2)nc2ccccc2c1=O = 33.6
O=C(NCCN1CCNCC1)c1ccc(Nc2nc3ccccc3c3occc23)cc1 = 8.51
c1ccc(-c2nc(N3CCCNCC3)c3nc(-c4ccccc4)oc3n2)cc1 = 3.08
CC(=O)n1nc(-c2ccccc2)n(/N=C/c2ccc([N+](=O)[O-])o2)c1=O = 12.1
COc1ccc(C2c3cc4c(cc3OC(NCCO)C2C)OCO4)cc1 (centres undefined) = 59.7
C/C(=C\CO)CC/C=C(\C)CNc1ccc([N+](=O)[O-])cc1 = 84.9
CN(C)c1ccc(Cc2cc3c(O)ccc(O)c3cc(Cc3ccc(N(C)C)cc3)c2=O)cc1 = 36.9
C/C1=C\CC[C@@](C)(O)[C@@H]2C[C@H](CC/C(C)=C/CC1)C1(CC1)C(=O)O2 = 35.1
O=C(/C=C/c1cccc(O)c1)c1cccc(-n2cc(-c3ccc4ccccc4c3)[nH]c2=O)c1 = 6.31
O=C1c2cccc(O)c2C(=O)c2c(OC3OC(CO)C(O)C(O)C3O)cccc21 (centres undefined) = 39.7
CC(C)N1CN(c2ccccc2)C2(CCN(CCCC(=O)c3ccc(F)cc3)CC2)C1=O = 27.6
